assay.name: molar heat capacity at constant pressure
assay.conditions: 231.15 K; 101.33 kPa; Crystal; Small sample (50 mg) DSC
Documented molar heat capacity at constant pressure across a set of molecules
Answer with a number only, understood to be in J/K/mol.

{"columns": ["molecule", "unit.descriptor", "molar heat capacity at constant pressure"],
 "data": [
  ["OC[C@H](O)C(O)[C@@H](O)CO [L-(-)-arabitol]", "J/K/mol", 160.4],
  ["OC[C@@H](O)[C@@H](O)CO [meso-1,2,3,4-butanetetrol]", "J/K/mol", 129.25],
  ["OC[C@@H](O)[C@H](O)[C@@H](O)CO [xylitol]", "J/K/mol", 162.12],
  ["OC[C@@H](O)C(O)[C@H](O)CO [D-arabitol]", "J/K/mol", 155.76],
  ["O[C@H]1[C@H](O)[C@@H](O)[C@H](O)[C@@H](O)[C@H]1O [cis-1,2,3,5-trans-4,6-cyclohexanehexol]", "J/K/mol", 166.87]
]}

Tell me the measured molar heat capacity at constant pressure of OC[C@@H](O)[C@@H](O)[C@H](O)[C@H](O)CO [D-mannitol] , please.
180.68

====

assay.conditions: 95 K; 101.33 kPa; Crystal; relaxation calorimetry
Mark fulfilled only for molar entropy values smaller than 50 J/K/mol; exact matches and larger values are not fulfilled.

// below: answered compounds
{"columns": ["compound", "assigned.category"],
 "data": [
  ["OC[C@@H](O)[C@@H](O)[C@H](O)[C@H](O)CO", "not fulfilled"],
  ["OC[C@@H](O)[C@H](O)[C@@H](O)CO", "not fulfilled"],
  ["OC[C@@H](O)[C@@H](O)CO", "fulfilled"]
]}

Does this compound meet the criterion molar entropy < 50 J/K/mol? OC[C@H](O)C(O)[C@@H](O)CO [L-(-)-arabitol]
not fulfilled

State whether 50 J/K/mol exceeds molar entropy recorded for `OC[C@@H](O)C(O)[C@H](O)CO` .
not fulfilled

====

assay.name: molar heat capacity at constant pressure
assay.conditions: 220 K; 101.33 kPa; Crystal; relaxation calorimetry
Below: a set of entries, each annotated with reported molar heat capacity at constant pressure.
Give the number; J/K/mol is assumed, so skip it.

{"columns": ["molecule", "unit.descriptor", "molar heat capacity at constant pressure"],
 "data": [
  ["OC[C@@H](O)[C@@H](O)CO", "J/K/mol", 125.28],
  ["OC[C@@H](O)C(O)[C@H](O)CO", "J/K/mol", 152.57],
  ["OC[C@H](O)C(O)[C@@H](O)CO [L-(-)-arabitol]", "J/K/mol", 154.3],
  ["O[C@H]1[C@H](O)[C@@H](O)[C@H](O)[C@@H](O)[C@H]1O [cis-1,2,3,5-trans-4,6-cyclohexanehexol]", "J/K/mol", 160.15],
  ["OC[C@@H](O)[C@H](O)[C@@H](O)CO", "J/K/mol", 154.86]
]}

Turning now to a further molecule:
What molar heat capacity at constant pressure value was documented for this molecule, `OC[C@@H](O)[C@@H](O)[C@H](O)[C@H](O)CO` ?
174.05

====

Consider the following molecules and their measured molar entropy readings.
assay.conditions: 240 K; 101.33 kPa; Crystal; relaxation calorimetry
Respond numerically; units are J/K/mol and should not be typed.

Example entries begin here.
{"columns": ["molecule", "unit.descriptor", "molar entropy"],
 "data": [
  ["OC[C@@H](O)C(O)[C@H](O)CO", "J/K/mol", 160.23],
  ["OC[C@H](O)C(O)[C@@H](O)CO [L-(-)-arabitol]", "J/K/mol", 161.65]
]}

Switching to the query record.
Which molar entropy is listed for O[C@H]1[C@H](O)[C@@H](O)[C@H](O)[C@@H](O)[C@H]1O [cis-1,2,3,5-trans-4,6-cyclohexanehexol] ?
155.74

====

assay.conditions: 365 K; 101.33 kPa; Crystal; Small sample (50 mg) DSC
readout.name: molar entropy (J/K/mol)
Give your result in J/K/mol as a bare value.

Some molecules with known molar entropy results, for comparison:
{"columns": ["molecule", "result"],
 "data": [
  ["OC[C@@H](O)[C@@H](O)[C@H](O)[C@H](O)CO", 279.37],
  ["OC[C@@H](O)C(O)[C@H](O)CO", 248.05],
  ["OC[C@@H](O)[C@@H](O)CO", 202.7]
]}

Would you kindly look at the next entry?
Could you tell me which molar entropy is on file for O[C@H]1[C@H](O)[C@@H](O)[C@H](O)[C@@H](O)[C@H]1O [cis-1,2,3,5-trans-4,6-cyclohexanehexol] ?
247.92

====

assay.name: molar heat capacity at constant pressure
assay.conditions: 220.15 K; 101.33 kPa; Crystal; Small sample (50 mg) DSC
readout.name: molar heat capacity at constant pressure (J/K/mol)
Numbers only; they are read as J/K/mol.

The cases that follow already have their molar heat capacity at constant pressure on record.
{"columns": ["molecule", "molar heat capacity at constant pressure (J/K/mol)"],
 "data": [
  ["OC[C@@H](O)C(O)[C@H](O)CO", 148.47],
  ["OC[C@@H](O)[C@H](O)[C@@H](O)CO", 154.86]
]}

What does the record list as molar heat capacity at constant pressure for `OC[C@@H](O)[C@@H](O)CO` ?
123.79

Item under review: O[C@H]1[C@H](O)[C@@H](O)[C@H](O)[C@@H](O)[C@H]1O [cis-1,2,3,5-trans-4,6-cyclohexanehexol] . Reported molar heat capacity at constant pressure?
158.66

So what does the record say about molar heat capacity at constant pressure for OC[C@H](O)C(O)[C@@H](O)CO [L-(-)-arabitol] ?
153.39

Given the molecule `OC[C@@H](O)[C@@H](O)[C@H](O)[C@H](O)CO` , what is its reported molar heat capacity at constant pressure?
172.81

====

assay.name: molar heat capacity at constant pressure
assay.conditions: 274.15 K; 101.33 kPa; Crystal; Small sample (50 mg) DSC
readout.name: molar heat capacity at constant pressure (J/K/mol)
Report the value in J/K/mol with no unit label.

{"columns": ["compound", "unit.descriptor", "molar heat capacity at constant pressure"],
 "data": [
  ["OC[C@@H](O)[C@@H](O)[C@H](O)[C@H](O)CO", "J/K/mol", 212.27]
]}

May I ask what molar heat capacity at constant pressure has been recorded for `OC[C@@H](O)[C@H](O)[C@@H](O)CO` ?
191.54

Reported molar heat capacity at constant pressure, compound OC[C@H](O)C(O)[C@@H](O)CO [L-(-)-arabitol] : ____
191.19

Entry `OC[C@@H](O)[C@@H](O)CO` has what molar heat capacity at constant pressure?
151.33

Using the record for `OC[C@@H](O)C(O)[C@H](O)CO` , report its molar heat capacity at constant pressure.
183.84

For the compound shown here, O[C@H]1[C@H](O)[C@@H](O)[C@H](O)[C@@H](O)[C@H]1O [cis-1,2,3,5-trans-4,6-cyclohexanehexol] , give the reported molar heat capacity at constant pressure.
199.42

====

assay.conditions: 55 K; 101.33 kPa; Crystal; relaxation calorimetry
readout.name: molar entropy (J/K/mol)
Use J/K/mol as the unit, but write only the number.

Study these solved cases before continuing.
{"columns": ["molecule", "molar entropy [J/K/mol]"],
 "data": [
  ["OC[C@H](O)C(O)[C@@H](O)CO [L-(-)-arabitol]", 23.88],
  ["OC[C@@H](O)[C@H](O)[C@@H](O)CO", 21.88],
  ["OC[C@@H](O)C(O)[C@H](O)CO", 23.61],
  ["O[C@H]1[C@H](O)[C@@H](O)[C@H](O)[C@@H](O)[C@H]1O [cis-1,2,3,5-trans-4,6-cyclohexanehexol]", 23.14],
  ["OC[C@@H](O)[C@@H](O)[C@H](O)[C@H](O)CO", 26.97]
]}

Can you share its molar entropy? I mean this molecule: `OC[C@@H](O)[C@@H](O)CO`
21.05

====

Measured molar heat capacity at constant pressure, listed per entry.
assay.name: molar heat capacity at constant pressure
assay.conditions: 230.15 K; 101.33 kPa; Crystal; Small sample (50 mg) DSC
Report only the number, with the unit J/K/mol understood.

{"columns": ["compound", "molar heat capacity at constant pressure, J/K/mol"],
 "data": [
  ["OC[C@H](O)C(O)[C@@H](O)CO [L-(-)-arabitol]", 159.71]
]}

Entry O[C@H]1[C@H](O)[C@@H](O)[C@H](O)[C@@H](O)[C@H]1O [cis-1,2,3,5-trans-4,6-cyclohexanehexol] : reported molar heat capacity at constant pressure = ?
166.09

Field request: molar heat capacity at constant pressure | item: OC[C@@H](O)[C@@H](O)[C@H](O)[C@H](O)CO [D-mannitol]
179.98

Fill in the blank: the reported molar heat capacity at constant pressure of OC[C@@H](O)C(O)[C@H](O)CO [D-arabitol] is ____.
155.25

Suppose we examine the compound OC[C@@H](O)[C@H](O)[C@@H](O)CO [xylitol] ; what molar heat capacity at constant pressure value has been reported?
161.2

So what's the measured molar heat capacity at constant pressure for this one? OC[C@@H](O)[C@@H](O)CO [meso-1,2,3,4-butanetetrol]
128.74
